system: MCF7; assay: Growth inhibition of human MCF7 cells at 10 uM incubated for 48 hrs by sulforhodamine B assay relative to control; type: functional; conditions: MCF7, 48 h, read-out: GI
MEASURED PROPERTY: inhibition of growth at 10 µM (%)
One number for each entry, in %.

Here is how some molecules turned out for inhibition of growth at 10 µM.
{"MOLECULE": "CCOC(=O)C1=C(C)NC(SCc2nnc(-c3ccc(Cl)cc3)o2)=NC1c1ccc(Br)cc1 (centres undefined)", "VALUE": 55.2}
{"MOLECULE": "COc1ccc(-c2nnc(CSC3=NC(c4ccc(F)cc4)C(C(C)=O)=C(C)N3)o2)cc1 (centres undefined)", "VALUE": 10.5}

Batch of 2 molecules: report inhibition of growth at 10 µM for each.
1. CCOC(=O)C1=C(C)NC(SCc2nnc(-c3ccc(Cl)cc3)o2)=NC1c1cccc(Cl)c1 (centres undefined)
2. CCOC(=O)C1=C(C)NC(SCc2nnc(-c3ccc(Cl)cc3)o2)=NC1c1ccc(Cl)cc1 (centres undefined)

32
51

These entries and their values trace back to ChEMBL document CHEMBL4190234.
